Entry source: patent US20220010021A1

koff for assorted binders
- targetUnderTest: T1, human beta-Klotho (KLB) (human, UniProt Q86Z14 53-997);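 further: Anti-KLB antibodies captured on anti-human Fc CM5 chip, KLB injected as analyte, 180 s association and 1800 s dissociation, fitted to 1:1 binding model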
- T1 construct: bought protein; also called human KLB
- T1 sequence (looked up): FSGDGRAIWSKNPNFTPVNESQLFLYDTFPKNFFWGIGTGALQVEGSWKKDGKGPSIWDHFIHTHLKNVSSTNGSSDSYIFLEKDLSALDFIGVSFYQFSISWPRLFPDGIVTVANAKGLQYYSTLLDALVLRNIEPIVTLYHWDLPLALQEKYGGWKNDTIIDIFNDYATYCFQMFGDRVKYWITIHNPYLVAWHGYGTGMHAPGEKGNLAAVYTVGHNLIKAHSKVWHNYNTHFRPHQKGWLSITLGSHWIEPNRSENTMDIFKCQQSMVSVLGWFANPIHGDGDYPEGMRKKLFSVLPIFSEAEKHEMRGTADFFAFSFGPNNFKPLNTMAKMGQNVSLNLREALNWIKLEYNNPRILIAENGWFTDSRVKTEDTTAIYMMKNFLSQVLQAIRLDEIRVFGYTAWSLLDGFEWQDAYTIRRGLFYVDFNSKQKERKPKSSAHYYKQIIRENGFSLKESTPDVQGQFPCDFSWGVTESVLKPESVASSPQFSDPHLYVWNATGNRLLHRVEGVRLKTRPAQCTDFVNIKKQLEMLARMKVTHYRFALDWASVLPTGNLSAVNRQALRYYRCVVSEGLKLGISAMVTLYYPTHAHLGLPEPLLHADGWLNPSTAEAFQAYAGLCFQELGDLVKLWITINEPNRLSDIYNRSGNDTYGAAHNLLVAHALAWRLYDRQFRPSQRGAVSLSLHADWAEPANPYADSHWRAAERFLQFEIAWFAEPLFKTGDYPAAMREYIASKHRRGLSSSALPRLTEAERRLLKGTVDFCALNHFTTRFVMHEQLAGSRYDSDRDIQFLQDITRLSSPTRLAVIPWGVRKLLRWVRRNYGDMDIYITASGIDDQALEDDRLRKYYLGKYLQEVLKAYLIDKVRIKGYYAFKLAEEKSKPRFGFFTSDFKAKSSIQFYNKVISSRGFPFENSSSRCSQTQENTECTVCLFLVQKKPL
- methodNotes: SPR
Respond numerically; units are s⁻¹ and should not be typed.

binder	propertyMeasured	reported
Ab0355 (antibody, IgG4, V domains shown, IgG4 PE) VH: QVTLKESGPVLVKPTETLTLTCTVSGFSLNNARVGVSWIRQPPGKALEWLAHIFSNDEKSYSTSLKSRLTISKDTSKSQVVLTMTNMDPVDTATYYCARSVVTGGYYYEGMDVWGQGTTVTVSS VL: SYVLTQPPSVSVAPGQTARITCGGSNIGSESVHWYQQKPGQAPVLVVYEYSDRPSGIPERFSGSNSGNTATLTISRVEAGDEADYYCQVWEGSSDHVVFGGGTKLTVLG	koff	0.00195
Ab0312 (antibody, IgG4, V domains shown, IgG4 PE) VH: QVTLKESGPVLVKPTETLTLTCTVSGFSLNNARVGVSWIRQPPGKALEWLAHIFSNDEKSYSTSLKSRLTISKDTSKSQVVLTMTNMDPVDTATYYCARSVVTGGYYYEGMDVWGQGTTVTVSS VL: SYVLTQPPSVSVAPGQTARITCGGSNIGSESVHWYQQKPGQAPVLVVYYESDRPSGIPERFSGSNSGNTATLTISRVEAGDEADYYCQVWDGESDHVVFGGGTKLTVLG	koff	0.00053
Ab0327 (antibody, IgG4, V domains shown, IgG4 PE) VH: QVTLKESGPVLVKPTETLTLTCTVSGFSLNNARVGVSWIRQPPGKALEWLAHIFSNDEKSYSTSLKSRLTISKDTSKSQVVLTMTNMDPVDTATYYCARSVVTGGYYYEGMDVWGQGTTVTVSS VL: SYVLTQPPSVSVAPGQTARITCGGSNIGSESVHWYQQKPGQAPVLVVYYYSDRPSGIPERFSGSNSGNTATLTISRVEAGDEADYYCQVWEGESDHVVFGGGTKLTVLG	koff	0.000346
Ab0340 (antibody, IgG4, V domains shown, IgG4 PE) VH: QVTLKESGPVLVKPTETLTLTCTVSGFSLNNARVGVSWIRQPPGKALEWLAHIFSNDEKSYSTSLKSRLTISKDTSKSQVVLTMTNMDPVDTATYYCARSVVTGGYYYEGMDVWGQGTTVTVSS VL: SYVLTQPPSVSVAPGQTARITCGGSNIGSESVHWYQQKPGQAPVLVVYAESDRPSGIPERFSGSNSGNTATLTISRVEAGDEADYYCQVWEGSSDHVVFGGGTKLTVLG	koff	0.00176
Ab0345 (antibody, IgG4, V domains shown, IgG4 PE) VH: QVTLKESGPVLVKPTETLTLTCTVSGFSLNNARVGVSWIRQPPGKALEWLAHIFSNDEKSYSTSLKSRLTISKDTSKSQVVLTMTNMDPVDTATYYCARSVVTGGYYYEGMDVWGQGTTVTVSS VL: SYVLTQPPSVSVAPGQTARITCGGSNIGSESVHWYQQKPGQAPVLVVYAASDRPSGIPERFSGSNSGNTATLTISRVEAGDEADYYCQVWEGASDHVVFGGGTKLTVLG	koff	0.00188
Ab0297 (antibody, IgG4, V domains shown, IgG4 PE) VH: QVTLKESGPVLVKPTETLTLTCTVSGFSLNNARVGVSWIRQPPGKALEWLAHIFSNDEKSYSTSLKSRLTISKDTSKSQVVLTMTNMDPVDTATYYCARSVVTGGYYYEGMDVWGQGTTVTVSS VL: SYVLTQPPSVSVAPGQTARITCGGNNIGSESVHWYQQKPGQAPVLVVYYESDRPSGIPERFSGSNSGNTATLTISRVEAGDEADYYCQVWDGNSDHVVFGGGTKLTVLG	koff	0.00156

What value of measured koff is listed for Ab0332 (antibody, IgG4, V domains shown, IgG4 PE) VH: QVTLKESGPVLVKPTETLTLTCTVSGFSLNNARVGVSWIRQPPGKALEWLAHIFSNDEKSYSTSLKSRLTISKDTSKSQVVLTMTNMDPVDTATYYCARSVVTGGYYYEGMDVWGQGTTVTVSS VL: SYVLTQPPSVSVAPGQTARITCGGSNIGSESVHWYQQKPGQAPVLVVYSESDRPSGIPERFSGSNSGNTATLTISRVEAGDEADYYCQVWEGASDHVVFGGGTKLTVLG ?
0.00143

Then what about the binder Ab0310 (antibody, IgG4, V domains shown, IgG4 PE) VH: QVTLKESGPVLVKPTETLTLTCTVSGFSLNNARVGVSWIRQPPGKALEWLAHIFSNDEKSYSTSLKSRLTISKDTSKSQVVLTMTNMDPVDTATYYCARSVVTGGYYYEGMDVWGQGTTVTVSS VL: SYVLTQPPSVSVAPGQTARITCGGSNIGSESVHWYQQKPGQAPVLVVYDESDRPSGIPERFSGSNSGNTATLTISRVEAGDEADYYCQVWDGESDHVVFGGGTKLTVLG ?
0.00116

What would you report for Ab0326 (antibody, IgG4, V domains shown, IgG4 PE) VH: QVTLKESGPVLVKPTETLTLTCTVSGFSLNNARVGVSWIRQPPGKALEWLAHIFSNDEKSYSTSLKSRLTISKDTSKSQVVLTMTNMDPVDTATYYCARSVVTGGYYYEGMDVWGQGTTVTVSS VL: SYVLTQPPSVSVAPGQTARITCGGSNIGSESVHWYQQKPGQAPVLVVYYESDRPSGIPERFSGSNSGNTATLTISRVEAGDEADYYCQVWEGSSDHVVFGGGTKLTVLG ?
0.00175

How about this binder: Ab0205 (antibody, IgG4, V domains shown, IgG4 PE) VH: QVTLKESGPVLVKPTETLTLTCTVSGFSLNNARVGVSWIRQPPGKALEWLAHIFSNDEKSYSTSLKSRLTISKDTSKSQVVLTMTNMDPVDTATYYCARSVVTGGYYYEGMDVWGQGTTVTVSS VL: SYVLTQPPSVSVAPGQTARITCGGNNIGSESVHWYQQKPGQAPVLVVYDDSDRPSGIPERFSGSNSGNTATLTISRVEAGDEADYYCQVWDGESDHVVFGGGTKLTVLG
0.000334
